Ref: the supplement of paper PMC10567573

Reported protein stability index values are given for each entry in this list.
B1: CSTF3 (parent)
chain: YVPEKVKKAEKKLEENPYDLDAWS

- Variants of: B1
- testDetails: protein stability index of a GFP-peptide fusion (GPS, HEK-293T) (PSI 1-6); higher = more stable;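 further: lentivirally expressed fusions sorted by FACS into six bins by GFP to DsRed ratio, PSI derived from sequencing read proportions per bin multiplied by bin number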
- appliedConditions: c terminus: a fixed tail appended
// no unit, no text: just the number

mutationCode | protein stability index
E14R | 2.36
V2I | 2.33
N16I | 1.05
V2G | 4.5

In the following, a different variant is considered.
Bench note: what protein stability index did `N16K` show?
3.09
